Provenance of the data: ChEMBL document CHEMBL1201862

Property: GI50; scope: individual molecules
- System: UACC-62
- experiment-description: NCI tumour cell line growth inhibition, 48 h
Activity calls are given as the source filed them. No stated cut-off is given here; in the data, active = GI50 up to about 1.1 µM and inactive = higher.

Below: 2 molecules and their reported GI50.
molecule=C[C@@H]1C(=O)C[C@H]2C(C)(C)CCC[C@]2(C)[C@@]1(O)CCc1ccoc1 reported_result="> 100 µM (inactive)"
molecule=O=C1c2scc(-c3ccc(F)cc3)c2-n2cccc21 reported_result="18.6 µM (inactive)"

Prompt line: Reported GI50 for UACC-62, given CCSC12OC3(CCCCCN3C1=O)C1C(=O)N(c3ccccc3)C(=O)C12 (configuration not stated) ?
Response line: > 100 µM (inactive)

Prompt line: Reported GI50 for UACC-62, given N#CN1CCC=C(c2cc3ccccc3[nH]2)C1 ?
Response line: 201 µM (inactive)

Prompt line: Reported GI50 for UACC-62, given CCOC(=O)C1C(NC(N)=O)N(Cc2ccccc2)C(=O)N1Cc1ccccc1 (configuration not stated) ?
Response line: > 100 µM (inactive)

Prompt line: Reported GI50 for UACC-62, given COc1ccc2nc3n(c2c1)C(c1c(F)cccc1F)SC3 (configuration not stated) ?
Response line: 56.9 µM (inactive)

Prompt line: Reported GI50 for UACC-62, given CCCCCCCOc1ccc(/C=C\c2cc[n+](CCCCCCCC[n+]3ccc(/C=C\c4ccc(OCCCCCCC)cc4)cc3)cc2)cc1 ?
Response line: 35.3 µM (inactive)

---

- Tested on: CCRF-CEM
- experiment-description: NCI tumour cell line growth inhibition, 48 h
Active and inactive are the calls of the source. Rule as the data show it: active = GI50 up to about 1.1 µM and inactive = higher.
// classify into YES (active), NO (inactive)

compound=O=C1c2scc(-c3ccc(F)cc3)c2-n2cccc21 classification=NO
compound="O=C(O)CN(CC(=O)O)C1CCCCC1N(CC(=O)O)CC(=O)NCCN=C=S (stereo unspecified)" classification=NO
compound=O=C(Cn1cc(-c2ccccc2)nn1)NC1CCCC1 classification=NO

Prompt line: Kindly provide the recorded test outcome for the following compound: Nc1nc(Cl)c(N)c(NCC2(CO)CC(CCCc3ccccc3)C2)n1 (stereo unspecified)
Response line: YES

Prompt line: Kindly provide the recorded test outcome for the following compound: Nc1nc2c(c(-c3cccc(Cl)c3)n1)COC/C2=C\c1cccc(Cl)c1
Response line: NO

Prompt line: Kindly provide the recorded test outcome for the following compound: O=[N+]([O-])/C=C/c1cc2ccccc2[nH]1
Response line: NO

Prompt line: Kindly provide the recorded test outcome for the following compound: Cc1cc2c(cc1Cl)Sc1nnc(C)n1S2(=O)=O
Response line: NO

Prompt line: Kindly provide the recorded test outcome for the following compound: Cc1nc2c(n1Cc1ccc(F)cc1)C(=O)c1ccccc1C2=O
Response line: NO

Prompt line: Kindly provide the recorded test outcome for the following compound: CCSC12OC3(CCCCCN3C1=O)C1C(=O)N(c3ccccc3)C(=O)C12 (stereo unspecified)
Response line: NO

Prompt line: Kindly provide the recorded test outcome for the following compound: O=c1oc2ncccc2n1Cc1ccc([N+](=O)[O-])cc1
Response line: NO

Prompt line: Kindly provide the recorded test outcome for the following compound: O=C(O)[C@@H]1CCCC[C@@H]1C(=O)N(C1CCCCC1)C1CCCCC1
Response line: NO

Prompt line: Kindly provide the recorded test outcome for the following compound: CC(=O)OC1CCC2C3CCc4c(C)ccc(OS(=O)(=O)c5ccccc5)c4C3CCC12C (stereo unspecified)
Response line: NO

Prompt line: Kindly provide the recorded test outcome for the following compound: COC(=O)c1cc(C)n(CN(Cc2ccccc2)Cn2nc(C(=O)OC)cc2C)n1
Response line: NO

Prompt line: Kindly provide the recorded test outcome for the following compound: [N-]=[N+]=NC1=C(c2ccccc2)C(=O)c2cccc3cccc1c23
Response line: NO

Prompt line: Kindly provide the recorded test outcome for the following compound: CC(=O)CCn1[nH]c(=O)c(Cl)c(Cl)c1=O
Response line: NO

Prompt line: Kindly provide the recorded test outcome for the following compound: O=S(=O)(c1ccccc1)C(CN1CCCCC1)S(=O)(=O)c1ccccc1
Response line: NO
